# ASSAY_NOTES: Equilibrium solubility of crystalline active in digestion medium / digested placebo LMP formulation
# Assay type: physicochemical
# STUDY_CONDITIONS: 37 °C, pH 6.5, fassif, thermodynamic from solid; same fasted intestinal medium, without digested lipid formulation; read-out: Equilibrium solubility of the crystalline active in digestion medium
REPORTED_ENDPOINT: solubility thermodynamic (µg/mL)

COMPOUND: CC(=O)O[C@H]1CC[C@@]2(C)C(=CC[C@@H]3[C@@H]2CC[C@]2(C)C(c4cccnc4)=CC[C@@H]32)C1 [Abiraterone acetate]
RECORDED_RESULT: 27
